tested on: MDA-MB-435 melanoma; test: NCI-60 one-dose screen, 48 h (100 = growth as untreated, 0 = no growth, -100 = all killed); conditions: 10 µM unless noted
About 83,000 compounds went through this panel and 20% of them were active in at least one assay; those are over-represented in the sample as a whole.
compounds and their reported growth

{"columns": ["compoundStructure", "growth (%)"],
 "data": [
  ["O=[N+]([O-])c1ccc(Oc2cccc3c(Oc4ccc([N+](=O)[O-])cc4[N+](=O)[O-])cccc23)c([N+](=O)[O-])c1", 106],
  ["CCN(CC)c1ccc(/C=N/NC(=O)c2ccccc2Nc2ccnc(C(F)(F)F)c2)c(O)c1", 29.3],
  ["CN1CCN(Cc2ccc(NC(=O)c3cncc(C#Cc4c(N)ncc5c(F)cccc45)c3)cc2C(F)(F)F)CC1", -83],
  ["COc1cc(C)cc(-c2c(-c3cc(N4CC(O)C4)nc(-c4cccnc4)n3)cnn2C)c1", 92],
  ["CC(C)(C)CC(C)(C)Nc1c(-c2c(O)c3ccccc3oc2=O)nc2sccn12", 104],
  ["COC(=O)CCc1c(/C=C2\\N=C(c3ccc[nH]3)C=C2OC)[nH]c(C)c1C(=O)OCc1ccccc1", 2.53],
  ["Cc1c(-c2cnc3ccc(Cl)cc3c2C(=O)O)nnn1-c1ccc(Cl)cc1", 105],
  ["O=C(/C=C/c1ccc(Cl)cc1)c1ccc(Nc2ccnc3cc(Cl)ccc23)cc1", 64.8],
  ["Cc1cccc(CN(Nc2ccccc2)c2ccccc2)n1", 103],
  ["C=C(c1ccc(C(=O)O)c(F)c1)c1cc2c(cc1C)C(C)(C)C=CC2(C)C", 95.3]
]}
